target-system: ERK2 (Rattus norvegicus)
Construct: gene Mapk1; full-length ERK2
Sequence (P63086 2-358): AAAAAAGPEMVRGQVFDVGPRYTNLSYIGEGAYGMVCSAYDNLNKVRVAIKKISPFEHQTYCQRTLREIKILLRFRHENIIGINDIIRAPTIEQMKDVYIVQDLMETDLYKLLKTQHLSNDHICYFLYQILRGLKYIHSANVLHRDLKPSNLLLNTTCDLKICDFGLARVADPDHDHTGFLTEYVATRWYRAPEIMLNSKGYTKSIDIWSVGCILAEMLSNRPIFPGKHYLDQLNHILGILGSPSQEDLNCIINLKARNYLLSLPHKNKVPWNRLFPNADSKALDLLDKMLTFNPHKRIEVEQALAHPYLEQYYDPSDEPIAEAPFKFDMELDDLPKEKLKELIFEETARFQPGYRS
assay-overview: fluorescence anisotropy displacement of FITC D-site peptide; also protein NMR, intact MS, kinact/Ki
Assay type: binding
readout-name: pKi
Numbers only, as −log10 of the molar value.

Please report the measured pKi for O=[N+]([O-])c1cnc(Sc2nnc(O)n2-c2ccc3c(c2)OCCO3)s1 [compound 1, BI-78D3]
6.10
